Provenance of the data: ChEMBL document CHEMBL1132208

# Test system: Homo sapiens
# assay.protocol: Percent of the drug absorbed after administration to humans was determined
# Type: ADME, organism-based
# assay.conditions: in vivo
parameter.measured: Absorption (%)

{"compound": "OC[C@H]1O[C@@H](O[C@@H]2[C@@H](CO)O[C@](O)(CO)[C@H]2O)[C@H](O)[C@@H](O)[C@H]1O [LACTULOSE]", "parameter.measured": "Absorption", "quantitative.readout": 0.6}
{"compound": "NC[C@H]1CC[C@H](C(=O)O)CC1 [TRANEXAMIC ACID]", "parameter.measured": "Absorption", "quantitative.readout": 55}
{"compound": "O=C(O)c1cc(/N=N/c2ccc(S(=O)(=O)Nc3ccccn3)cc2)ccc1O [SULFASALAZINE]", "parameter.measured": "Absorption", "quantitative.readout": 12}
{"compound": "OC[C@H]1O[C@H](OC[C@H]2O[C@H](O[C@]3(CO)O[C@H](CO)[C@@H](O)[C@@H]3O)[C@H](O)[C@@H](O)[C@@H]2O)[C@H](O)[C@@H](O)[C@H]1O [RAFFINOSE]", "parameter.measured": "Absorption", "quantitative.readout": 0.3}
{"compound": "CC(C)NCC(O)COc1cccc2[nH]ccc12 (stereo not drawn) [PINDOLOL]", "parameter.measured": "Absorption", "quantitative.readout": 92}
{"compound": "C=CCOc1ccccc1OCC(O)CNC(C)C (stereo not drawn) [OXPRENOLOL]", "parameter.measured": "Absorption", "quantitative.readout": 97}
{"compound": "O=C(O)c1cc(/N=N/c2ccc(O)c(C(=O)O)c2)ccc1O [OLSALAZINE]", "parameter.measured": "Absorption", "quantitative.readout": 2.3}
{"compound": "OC[C@@H](O)[C@@H](O)[C@H](O)[C@H](O)CO [MANNITOL]", "parameter.measured": "Absorption", "quantitative.readout": 26}

###

# Tested on: Homo sapiens
# assay.protocol: Percent of the drug absorbed after administration to humans was determined
# Assay type: ADME, organism-based
# assay.conditions: in vivo
parameter.measured: Absorption (%)

{"compound": "Cc1cc(=O)n(-c2ccccc2)n1C [ANTIPYRINE]", "quantitative.readout": 97}
{"compound": "CCN1CCCC1CNC(=O)c1cc(S(N)(=O)=O)ccc1OC (stereo not given) [SULPIRIDE]", "quantitative.readout": 36}
{"compound": "Cc1ccccc1N1C(=O)c2cc(S(N)(=O)=O)c(Cl)cc2NC1C (stereo not given)", "quantitative.readout": 64}
{"compound": "O=C(O)P(=O)(O)O", "quantitative.readout": 17}
{"compound": "C=CCc1ccccc1OCC(O)CNC(C)C (stereo not given)", "quantitative.readout": 96}
